# Toxilight Jurkat % viability at 10 μM per record follows
# Tested on: Jurkat cells
# Protocol details: Toxilight BioAssay (adenylate kinase release), Jurkat
# Assay type: cell-based
# Recorded conditions: 24 hours exposure, mean ± SD of triplicates
I only need the number, in %, no unit after it.

Past entries and their recorded results:
C[C@]12C(=O)N(c3cc(Cl)cc(Cl)c3)C(=O)[C@H]1[C@H]2c1ccc(Br)cc1 (racemic) [4′f (racemate)]
99.9
C[C@]12C(=O)N(c3cc(Cl)cc(Cl)c3)C(=O)[C@H]1[C@H]2c1ccc(C#N)cc1 (racemic) [4′h (racemate)]
93.5
C[C@]12C(=O)N(c3cc(Cl)cc(Cl)c3)C(=O)[C@H]1[C@H]2c1ccc(OC(F)(F)F)cc1 (racemic) [4′g (racemate)]
116
CC12C(=O)N(c3cc(Cl)cc(Cl)c3)C(=O)C1C2(c1ccccc1)c1ccccc1 (single isomer, unassigned) [4b enantiomer A]
100

Recorded result, C[C@]12C(=O)N(c3cc(Cl)cc(Cl)c3)C(=O)[C@H]1C2(c1ccccc1)c1ccccc1 (racemic) [4b (racemate)] , Toxilight Jurkat % viability at 10 μM: 101
